- tested system: OX2 (Homo sapiens, UniProt O43614)
- Sequence (O43614 whole entry): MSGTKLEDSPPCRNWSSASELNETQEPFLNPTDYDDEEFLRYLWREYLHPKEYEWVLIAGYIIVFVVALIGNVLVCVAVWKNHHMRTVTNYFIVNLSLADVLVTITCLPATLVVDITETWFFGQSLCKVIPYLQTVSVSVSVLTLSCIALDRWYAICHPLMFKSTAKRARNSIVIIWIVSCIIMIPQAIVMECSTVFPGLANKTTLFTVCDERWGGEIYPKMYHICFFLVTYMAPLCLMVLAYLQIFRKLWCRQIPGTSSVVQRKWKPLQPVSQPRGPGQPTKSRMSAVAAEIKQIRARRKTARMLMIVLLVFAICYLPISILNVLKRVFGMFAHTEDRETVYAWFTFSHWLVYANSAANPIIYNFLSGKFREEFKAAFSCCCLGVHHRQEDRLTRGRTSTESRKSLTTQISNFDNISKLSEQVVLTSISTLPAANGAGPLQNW
- test name: Measurement of orexin receptor-binding ability ([125I]-OX-A, cell membranes, OX2)
- Design: expressed in transfected cells; host or cells: CHO cells (membrane preparation)
- experimental context: membranes of recombinant CHO cells expressing OX2, 0.2 nM [125I]-OX-A; read-out: OX2 (IC50)
endpoint label: pIC50
Numbers only, as −log10 of the molar value.

These recorded examples may help you get a feel for the data.
> print(dat)
                                   compound                       tested.system  endpoint.label  recorded.measurement
1  COCc1nc(C)ncc1OC[C@@]1(c2ccccc2)C[C@H]1C(=O)Nc1ccc(F)c(F)c1  OX2 (Homo sapiens, UniProt O43614)           pIC50                  8.00
2  COCc1nc(C)ncc1OC[C@@]1(c2cccc(F)c2)C[C@H]1C(=O)Nc1ccc(F)cc1F  OX2 (Homo sapiens, UniProt O43614)           pIC50                  8.40
3  COc1cc(NC(=O)[C@@H]2C[C@@]2(COc2cnc(C)nc2C)c2ccc(F)cc2)ncc1F  OX2 (Homo sapiens, UniProt O43614)           pIC50                  8.37

Record pIC50 for all entries; do not skip any.
1. COc1cc([C@]2(COc3cnc(C)nc3C)C[C@H]2C(=O)Nc2ccc(F)cc2)ccc1F
2. Cc1ncc(OC[C@@]2(c3ccccc3)C[C@H]2C(=O)Nc2ccnc(Cl)c2)c(C)n1
3. COCc1nc(C)ncc1OC[C@@]1(c2ccc(F)c(OC)c2)C[C@H]1C(=O)Nc1ccc(F)c(F)c1
4. COCc1nc(C)ncc1OC[C@@]1(c2cc(F)cc(OC)c2)C[C@H]1C(=O)Nc1ccccn1
5. COCc1nc(C)ncc1OC[C@@]1(c2ccc(F)c(OC)c2)C[C@H]1C(=O)Nc1cc(C)c(F)cn1
6. Cc1ncc(N(C)C[C@@]2(c3ccccc3)C[C@H]2C(=O)Nc2cc(C)c(F)cn2)c(C)n1
7. COc1cc(NC(=O)[C@@H]2C[C@@]2(COc2cnc(C)nc2C)c2ccc(F)c(F)c2)ncc1F
8. CCc1nc(C)ncc1OC[C@@]1(c2cccc(F)c2)C[C@H]1C(=O)Nc1cc(C)c(F)cn1

6.68
7.82
7.82
8.22
8.15
7.34
8.48
8.28

Record pIC50 for all entries; do not skip any.
1. COc1ncc(OC[C@@]2(c3ccccc3)C[C@H]2C(=O)Nc2ccc(C#N)cn2)c(C)n1
2. COCc1nc(C)ncc1OC[C@@]1(c2ccccc2)C[C@H]1C(=O)Nc1cccc(F)c1
3. Cc1ccnc(NC(=O)[C@@H]2C[C@@]2(COc2cnc(C)nc2C)c2ccccc2)c1
4. Cc1ncc(OC[C@@]2(c3ccccc3)C[C@H]2C(=O)Nc2cccc(CO)c2)c(C)n1

1: 7.10; 2: 7.70; 3: 7.54; 4: 7.42

Record pIC50 for all entries; do not skip any.
1. COCc1nc(C)ncc1OCC1(c2cccc(Cl)c2)CC1C(=O)Nc1ccc(C#N)cn1 (stereo not shown)
2. Cc1ncc(OC[C@@]2(c3cccc(F)c3)C[C@H]2c2nc3ncccc3c(=O)[nH]2)c(C)n1
3. COCc1nc(C)ncc1OC[C@@]1(c2ccccc2)C[C@H]1C(=O)Nc1ccc(F)cc1
4. COCc1nc(C)ncc1OC[C@@]1(c2ccc(F)cc2)C[C@H]1C(=O)Nc1ccccn1
5. Cc1ncc(OC[C@@]2(c3ccsc3)C[C@H]2C(=O)Nc2ccc(Cl)cn2)c(C)n1
6. CCc1ncc(OC[C@@]2(c3ccccc3)C[C@H]2C(=O)Nc2ccc(Cl)cn2)c(C)n1

1. 7.85
2. 7.21
3. 8.00
4. 7.57
5. 7.64
6. 7.12

Record pIC50 for all entries; do not skip any.
1. COc1cncc(NC(=O)[C@@H]2C[C@@]2(COc2cnc(C)nc2C)c2ccc(F)cc2)c1
2. Cc1ncc(OC[C@@]2(c3ccccc3)C[C@H]2C(=O)Nc2ccc(F)cc2)c(C)n1
3. COc1cc(F)cc(C2(COc3cnc(C)nc3C)CC2C(=O)Nc2ccc(C#N)cn2)c1 (stereo not shown)
4. COCc1nc(C)ncc1OC[C@@]1(c2ccccc2)C[C@H]1C(=O)Nc1cc(C)c(F)cn1
5. COc1cc([C@]2(COc3cnc(C)nc3C)C[C@H]2C(=O)Nc2ccc(Cl)cn2)ccc1F
6. Cc1ncc(OC[C@@]2(c3ccccc3)C[C@H]2c2nc3cc(F)ccc3[nH]2)c(C)n1
7. COc1cc(F)cc(C2(COc3cnc(C)nc3C)CC2C(=O)Nc2ccc(F)cc2)c1 (stereo not shown)

1. 7.74
2. 7.62
3. 7.39
4. 8.05
5. 7.08
6. 8.52
7. 7.74

Record pIC50 for all entries; do not skip any.
1. Cc1ncc(OC[C@@]2(c3ccccc3)C[C@H]2C(=O)Nc2ccnc(C(F)(F)F)c2)c(C)n1
2. Cc1ncc(OC[C@@]2(c3ccc(F)c(F)c3)C[C@H]2C(=O)Nc2ccc(F)c(F)c2)c(C)n1

1: 7.59; 2: 8.15

---

- tested system: OX2 (Homo sapiens)
- test name: Measurement of orexin receptor-binding ability ([125I]-OX-A, cell membranes, OX2)
- Parameters: expressed in transfected cells; host or cells: CHO cells (membrane preparation)
- experimental context: OX2 (IC50) nM, membranes of recombinant CHO cells expressing OX2, 0.2 nM [125I]-OX-A
Field 'label' (enum: True / False). Set to True when IC50 is strictly under 7 nM; else False.

Reference set, count: 3
> print(dat)
                                   compound  discrete.label
1  Cc1ncc(OC[C@@]2(c3ccc(F)cc3)C[C@H]2C(=O)Nc2ccc(F)cn2)c(C)n1 [Example 100]           False
2  CCc1nc(C)ncc1OC[C@@]1(c2cccc(F)c2)C[C@H]1C(=O)Nc1ccc(Cl)cn1 [Example 243]            True
3  COc1cccc([C@]2(COc3cnc(C)nc3C)C[C@H]2C(=O)Nc2ccc(F)cc2)c1 [Example 187]           False

Does Cc1ncc(OC[C@@]2(c3cc(F)cc(F)c3)C[C@H]2C(=O)Nc2ccc(C#N)cn2)c(C)n1 [Example 137] have IC50 strictly under 7 nM?
True

Does CCc1nc(C)ncc1OC[C@@]1(c2ccc(F)cc2)C[C@H]1C(=O)Nc1ccccn1 [Example 245] have IC50 strictly under 7 nM?
False

Does Cc1ncc(OCC2(c3ccccc3F)CC2C(=O)Nc2cccnc2)c(C)n1 (centres unmarked) [Example 276] have IC50 strictly under 7 nM?
False

Does Cc1ncc(OC[C@@]2(c3ccc(F)c(F)c3)C[C@H]2C(=O)Nc2ccc(F)cn2)c(C)n1 [Example 169] have IC50 strictly under 7 nM?
True

---

- tested system: OX1 (Homo sapiens)
- Sequence (O43613 1-425): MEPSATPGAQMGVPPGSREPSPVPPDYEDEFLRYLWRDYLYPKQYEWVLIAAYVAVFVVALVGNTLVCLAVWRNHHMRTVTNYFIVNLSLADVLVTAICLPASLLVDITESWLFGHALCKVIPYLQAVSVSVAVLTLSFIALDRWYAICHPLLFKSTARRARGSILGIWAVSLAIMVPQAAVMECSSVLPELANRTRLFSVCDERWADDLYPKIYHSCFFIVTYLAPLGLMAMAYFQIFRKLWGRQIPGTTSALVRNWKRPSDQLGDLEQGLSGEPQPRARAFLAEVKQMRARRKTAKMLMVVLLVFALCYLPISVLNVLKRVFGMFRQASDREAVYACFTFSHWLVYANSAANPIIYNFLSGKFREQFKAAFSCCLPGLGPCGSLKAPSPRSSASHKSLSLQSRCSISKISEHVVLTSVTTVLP
- test name: Measurement of orexin receptor-binding ability ([125I]-OX-A, cell membranes, OX1)
- Parameters: expressed in transfected cells; host or cells: CHO cells (membrane preparation)
- experimental context: membranes of recombinant CHO cells expressing OX1, 0.2 nM [125I]-OX-A; read-out: OX1 (IC50)
param class (str): category from IC50; see ranges low interval (below 20 nM), middle interval (20 nM to below 100 nM), high interval (100 nM or more)

Record Cc1ncc(OC[C@@]2(c3ccccc3)C[C@H]2C(=O)Nc2ccnc(C#N)c2)c(C)n1 — which class?
high interval

Record Cc1ncc(OC[C@@]2(c3cc(F)cc(F)c3)C[C@H]2c2nc3ncc(F)cc3[nH]2)c(C)n1 — which class?
low interval

---

Give measured Ki for each item. Keep answers brief.
- tested system: OX1 (Homo sapiens)
- test name: Measurement of antagonism (PLAP assay), OX1
- Format: cell-based
- Parameters: expressed in transfected cells; host or cells: HEK-293 cells, expression vector pBabeCLIH
- experimental context: HEK-293 cells expressing human OX1, 1 nM human OX-A, IC50 converted by Cheng-Prusoff equation; read-out: OX1 (Ki)
Numbers only, in nM.

> print(dat)
                                   compound       tested.system  recorded.measurement
1  CCc1nc(C)ncc1OC[C@@]1(c2ccccc2)C[C@H]1C(=O)Nc1ccc(C#N)cn1  OX1 (Homo sapiens)                   273
2  Cc1ncc(OC[C@@]2(c3ccccc3)C[C@H]2C(=O)Nc2ccc(F)c(C#N)c2)c(C)n1  OX1 (Homo sapiens)                    27
3  Cc1ncc(OC[C@@]2(c3ccc(Cl)cc3)C[C@H]2C(=O)Nc2ccc(F)cn2)c(C)n1  OX1 (Homo sapiens)                    32
4  Cc1ncc(OC[C@@]2(c3cc(F)cc(F)c3)C[C@H]2C(=O)Nc2cc(C)c(F)cn2)c(C)n1  OX1 (Homo sapiens)                  0.97

Could you now consider this next compound?
The compound Cc1ncc(OC[C@@]2(c3ccccc3)C[C@H]2C(=O)Nc2ccc(Cl)cn2)c(C)n1 , when measured on OX1 (Homo sapiens), yielded Ki of 80
